Study target: CCK receptor (brain) (Cavia porcellus, UniProt H0VZC5)
Sequence (H0VZC5 entry or part of it): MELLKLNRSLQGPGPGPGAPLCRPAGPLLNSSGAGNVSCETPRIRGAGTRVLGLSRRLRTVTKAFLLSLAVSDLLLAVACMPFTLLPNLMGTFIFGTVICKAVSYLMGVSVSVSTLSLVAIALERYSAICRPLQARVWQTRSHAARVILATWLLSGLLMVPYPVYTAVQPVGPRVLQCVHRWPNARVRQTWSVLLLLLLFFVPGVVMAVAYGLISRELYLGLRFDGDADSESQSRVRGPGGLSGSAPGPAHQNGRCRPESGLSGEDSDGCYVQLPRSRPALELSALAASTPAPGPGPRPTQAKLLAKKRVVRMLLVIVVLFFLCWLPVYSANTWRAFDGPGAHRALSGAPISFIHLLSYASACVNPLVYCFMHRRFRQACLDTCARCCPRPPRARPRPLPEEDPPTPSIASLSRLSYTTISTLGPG
Measured property: pIC50
In textbook form, pIC50 equals minus log to base ten of the concentration in mol/L.

>>> df
                                   molecule  measured_property  measured_number
0  CC(C)CN1C(=O)C(NC(=O)Nc2cccc(-c3nn[nH]n3)c2)N=C(c2cc[nH]c(=O)c2)c2ccccc21 (racemic)              pIC50             7.64

Param readout= pIC50; system= CCK receptor (brain) (Cavia porcellus, UniProt H0VZC5); entry= CC(C)CN1C(=O)C(NC(=O)Nc2cccc(-c3nn[nH]n3)c2)N=C(c2ccc(=O)[nH]c2)c2ccccc21 (racemic) ; returns value.
7.72

The measured values listed here are drawn from patent US5478933A.
